- measuredOn: Translocator protein (Rattus norvegicus, UniProt P16257)
- Sequence (P16257 whole entry, looked up): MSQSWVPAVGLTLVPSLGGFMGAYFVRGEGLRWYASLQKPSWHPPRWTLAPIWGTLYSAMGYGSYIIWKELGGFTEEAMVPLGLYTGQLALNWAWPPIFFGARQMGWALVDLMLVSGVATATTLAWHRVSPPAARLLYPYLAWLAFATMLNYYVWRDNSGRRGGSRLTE
- assayOverview: Displacement of [3H]-PK 11195 from peripheral (mitochondrial) benzodiazepine receptor
Assign labels as follows, please: true (1) for IC50 below 600 nM; false (0) for IC50 equal to or exceeding 600 nM.

Below are worked cases with known answers.
• CCC(=O)OC1=C(c2ccccc2)Sc2ccccc2-n2cccc21 = true (1)
• COc1ccc(C2=C(OC(C)=O)c3cccn3-c3cc(Cl)ccc3S2)cc1 = false (0)
• CCC(=O)OC1=C(c2ccc(OC)cc2)Sc2ccc(Cl)cc2-n2cccc21 = true (1)
• CC(=O)OC1=C(c2ccccc2)Sc2cc(Cl)ccc2-n2cccc21 = true (1)
• CCCC(=O)OC1=C(c2ccc(OC)cc2)Sc2ccccc2-n2cccc21 = true (1)
• COc1ccc(C2Sc3ccc(C(F)(F)F)cc3-n3cccc3C2=O)cc1 (stereo not given) = false (0)
• COc1ccc(C2=C(OC(C)=O)c3cccn3-c3ccccc3S2)cc1 = true (1)
• COc1ccc(C2=C(OC(C)=O)c3cccn3-c3cc(C(F)(F)F)ccc3S2)cc1 = false (0)
• COc1ccc(C2=C(OC(C)=O)c3cccn3-c3cc(OC)ccc3S2)cc1 = false (0)

# input for lookup
[ask] Determine if `COc1ccc(C2=C(OC(=O)N(C)C)c3cccn3-c3cc(C(F)(F)F)ccc3S2)cc1` shows IC50 strictly lower than 600 nM.
[reply] true (1)

====

- measuredOn: Translocator protein (Rattus norvegicus, UniProt P16257)
- assayOverview: Displacement of [3H]-PK 11195 from peripheral (mitochondrial) benzodiazepine receptor
measureName: IC50 (nM)
Use nM as the unit, but write only the number.

* CCC(=O)OC1=C(c2ccccc2)Sc2ccc(Cl)cc2-n2cccc21 | 820

Now take the following compound into account.
[ask] Quick one: IC50 of COc1ccc(C2Sc3ccc(Cl)cc3-n3cccc3C2=O)cc1 (stereo not given) ?
[reply] 1410

====

- measuredOn: Translocator protein (Rattus norvegicus, UniProt P16257)
- assayOverview: Displacement of [3H]-PK 11195 from peripheral (mitochondrial) benzodiazepine receptor
Entries annotated with measured pIC50
To interpret pIC50, take it as minus log10 of a concentration measured in moles per litre.

Would you please look over these solved cases?
- CC(=O)OC1=C(c2ccccc2)S(=O)(=O)c2ccccc2-n2cccc21: 5.94
- O=C1c2cccn2-c2ccccc2SC1c1ccccc1 (stereo not drawn): 5.91

// next item, pIC50 requested
[ask] I am curious: what pIC50 value has been reported for CC(=O)OC1=C(c2ccccc2)[S+]([O-])c2ccccc2-n2cccc21 (stereo not drawn) ?
[reply] 6.16

All values here come from ChEMBL document CHEMBL1127506.
